Experiment: in vitro
Details: PAMPA, pH 7.4
outcome.measure: permeability at 10 µM (×10⁻⁶ cm/s)
Hi! Could you send only the number? It should be in ×10⁻⁶ cm/s, unit omitted.

Quick one: permeability at 10 µM of CCOC(=O)c1c(-c2cccc([N+](=O)[O-])c2)[nH]c2cccc(OC)c2c1=O ?
110

###

Experiment: Membrane permeability at 10 uM at pH 4 by PAMPA method
Type: ADME
Conditions: read-out: permeability
outcome.measure: Papp at 10 µM

CCOC(=O)c1c(-c2ccc3c(c2)OCO3)nc2cc(OC)ccc2c1Cl = 500 ×10⁻⁶ cm/s

Now look at this entry.
Quick one: Papp at 10 µM of CCOC(=O)c1cc2c(OC)cccc2nc1-c1ccc2c(c1)OCO2 ?
500 ×10⁻⁶ cm/s
